Numbers sourced from patent US8937077B2.

# measured_target: Jak1 (Homo sapiens, UniProt P23458)
# Construct: using a recombinant purified GST-tagged catalytic domain for each enzyme; GST; purchased Invitrogen M4290
# Sequence (P23458 875-1153 limits assumed): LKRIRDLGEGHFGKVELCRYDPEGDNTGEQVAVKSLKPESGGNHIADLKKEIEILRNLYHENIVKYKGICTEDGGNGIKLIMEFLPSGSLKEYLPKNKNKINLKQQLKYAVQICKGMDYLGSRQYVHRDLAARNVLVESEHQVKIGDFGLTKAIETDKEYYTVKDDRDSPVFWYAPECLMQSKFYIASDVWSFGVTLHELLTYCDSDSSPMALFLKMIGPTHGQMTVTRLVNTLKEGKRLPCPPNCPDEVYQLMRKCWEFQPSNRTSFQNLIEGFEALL
# assay_comment: Jak Biochemical HTRF Assay (Jak1)
# details: IC50 class, recombinant GST-tagged catalytic domain, read-out: Jak1 activity
parameter_measured: IC50

* CCS(=O)(=O)N1CCC[C@@H]2[C@H]1CCN2c1ncnc2[nH]ccc12 (single isomer, unassigned) | 10 to 100 nM
* O=C(OCc1ccc2ccccc2c1)N1CCCC2C1CCN2c1ncnc2[nH]ccc12 (stereo not shown) | 10 to 100 nM
* O=C(c1cc(-c2cccc(F)c2)no1)N1CCC[C@@H]2[C@H]1CCN2c1ncnc2[nH]ccc12 | 100 to 1000 nM
* CN1CCC(COC(=O)N2CCC[C@@H]3[C@H]2CCN3c2ncnc3[nH]ccc23)CC1 | 100 to 1000 nM
* CN(C)CCN(C)C(=O)c1ccc(COC(=O)N2CCC[C@@H]3[C@H]2CCN3c2ncnc3[nH]ccc23)cc1 | 100 to 1000 nM
* O=C(OCc1ccncc1)N1CCCC2C1CCN2c1ncnc2[nH]ccc12 (stereo not shown) | 10 to 100 nM
* O=C(OCc1ccccc1F)N1CCC[C@@H]2[C@H]1CCN2c1ncnc2[nH]ccc12 | 1 to 10 nM
* O=C(c1cncc2ccccc12)N1CCC[C@@H]2[C@H]1CCN2c1ncnc2[nH]ccc12 | 10 to 100 nM
* O=C(c1cn2ccc(Cl)cc2n1)N1CCC[C@@H]2[C@H]1CCN2c1ncnc2[nH]ccc12 | 100 to 1000 nM
* O=C(c1ccccc1)N1CCC[C@@H]2[C@H]1CCN2c1ncnc2[nH]ccc12 | 10 to 100 nM

What value of measured IC50 is listed for CCC[C@H]1C[C@H]1C(=O)N1CCC[C@@H]2[C@H]1CCN2c1ncnc2[nH]ccc12 ? 10 to 100 nM

###

# measured_target: Jak1 (Homo sapiens, UniProt P23458)
# Construct: using a recombinant purified GST-tagged catalytic domain for each enzyme; GST; purchased Invitrogen M4290
# assay_comment: Jak Biochemical HTRF Assay (Jak1)
# details: IC50 class, recombinant GST-tagged catalytic domain, read-out: Jak1 activity
Measured IC50, listed per entry for reference.

// known answers, use as guide
- c1nc(N2CCC3NCCC[C@@H]32)c2cc[nH]c2n1 (single isomer, unassigned) [Enantiomer 1]: 100 to 1000 nM
- O=C(OCc1ccccn1)N1CCCC2C1CCN2c1ncnc2[nH]ccc12 (centres unmarked): 10 to 100 nM
- O=S(=O)(CCc1ccccc1)N1CCC[C@@H]2[C@H]1CCN2c1ncnc2[nH]ccc12: 1 to 10 nM
- O=C(c1ccc2ccccc2c1)N1CCC[C@@H]2[C@H]1CCN2c1ncnc2[nH]ccc12: 10 to 100 nM
- O=C1NCc2ccc(C(=O)N3CCC[C@@H]4[C@H]3CCN4c3ncnc4[nH]ccc34)cc21: 10 to 100 nM
- O=C(OCC1CC1)N1CCC[C@@H]2[C@H]1CCN2c1ncnc2[nH]ccc12: 10 to 100 nM
- C[C@@H](OC(=O)N1CCCC2C1CCN2c1ncnc2[nH]ccc12)c1ccccc1 (some centres unmarked): 10 to 100 nM

Now, please, on to the next molecule.
What value of measured IC50 is listed for N#Cc1ccc(C(=O)N2CCC[C@@H]3[C@H]2CCN3c2ncnc3[nH]ccc23)cc1 ? 10 to 100 nM
